- Assay: gradient 5% acetonitrile 3 min, to 50% in 2 min, to 85% in 15 min, held 3 min, 100 µL/min
- Test parameters: column: Zorbax Extend-C18 2.1 x 50 mm; eluents: water / acetonitrile, 0.1% formic acid
RP-LC retention time vs 900 s: less than gives Yes; not less than gives No.

>  <Compound>
Cc1ccc(NC(=O)C2CCN(S(=O)(=O)c3ccc4c(c3)sc(=O)n4C(C)C)CC2)cc1F

>  <Assigned class>
No

$$$$
>  <Compound>
CCN1C(=O)C2CC3(CCN(C(=O)c4cccs4)CC3)CN2C1=O (centres undefined)

>  <Assigned class>
Yes

$$$$
>  <Compound>
Cc1ccc(NC(=O)Cn2nc3c(Oc4ccc(Cl)cc4)nccn3c2=O)cc1

>  <Assigned class>
Yes

$$$$
>  <Compound>
COc1ccc(-c2nc(N(CCCN3CCOCC3)Cc3ccco3)c3ccccc3n2)cc1

>  <Assigned class>
Yes

$$$$
>  <Compound>
CCOc1ccc(CC(=O)Nc2cc3c(cc2N(C)C)n(C)c(=O)c(=O)n3C)cc1OCC

>  <Assigned class>
Yes

$$$$

[Q] Please indicate whether the reported RP-LC retention time of "Cc1ccc(NS(=O)(=O)c2cc(-c3[nH]ncc3C(=O)N(C)C)oc2C)c(C)c1" is strictly below 900 s.
[A] Yes

[Q] Please indicate whether the reported RP-LC retention time of "CCC(=O)N1CCc2c(C(=O)N3CCN(c4ccccc4)CC3)cccc21" is strictly below 900 s.
[A] Yes

[Q] Please indicate whether the reported RP-LC retention time of "O=C(COc1ccc(Cl)cc1Cl)Nc1ccc2c(c1)N(C(=O)C1CC1)CC2" is strictly below 900 s.
[A] No

[Q] Please indicate whether the reported RP-LC retention time of "CCCn1cc(C(=O)N2CCOCC2)c2cccnc21" is strictly below 900 s.
[A] Yes

[Q] Please indicate whether the reported RP-LC retention time of "Brc1cccc(-c2noc(Cn3ccnc3)n2)c1" is strictly below 900 s.
[A] Yes

[Q] Please indicate whether the reported RP-LC retention time of "COCCN1CCn2cc(S(=O)(=O)Nc3ccc(C)cc3C)cc2C1=O" is strictly below 900 s.
[A] Yes

[Q] Please indicate whether the reported RP-LC retention time of "COc1ccc(OC)c(CNC(=O)C2CCN(c3ncnc4c3oc3ccccc34)CC2)c1" is strictly below 900 s.
[A] Yes

[Q] Please indicate whether the reported RP-LC retention time of "CCOc1ccccc1NC(=O)c1sc(-c2cn(CC)c3ncccc23)nc1C" is strictly below 900 s.
[A] No

[Q] Please indicate whether the reported RP-LC retention time of "CCCCN(C)Cc1nnn(-c2ccc(F)cc2)c1C" is strictly below 900 s.
[A] Yes

[Q] Please indicate whether the reported RP-LC retention time of "Cn1nnc2cc(CNC(=O)c3cccnc3)ccc21" is strictly below 900 s.
[A] Yes

[Q] Please indicate whether the reported RP-LC retention time of "Cc1ccc(C)c(NC(=O)Cn2c(C)cc(-c3nnc(C)o3)c2C)c1" is strictly below 900 s.
[A] Yes

[Q] Please indicate whether the reported RP-LC retention time of "COCCCn1cc(C(=O)N2CCc3ccccc3C2)c2nn(-c3ccccc3)c(=O)c-2c1" is strictly below 900 s.
[A] Yes

[Q] Please indicate whether the reported RP-LC retention time of CC(C)(C)c1nnc(NC(=O)C2CC(=O)N(CCc3c[nH]c4ccc(F)cc34)C2)s1 (centres undefined) is strictly below 900 s.
[A] Yes

[Q] Please indicate whether the reported RP-LC retention time of "Cc1cccc(N2CCN(S(=O)(=O)c3cc(-c4nnc(C5CC5)o4)co3)CC2)c1C" is strictly below 900 s.
[A] No

[Q] Please indicate whether the reported RP-LC retention time of "Cn1c(C(=O)Nc2cccc(Cl)c2)cc2c(=O)oc3ccccc3c21" is strictly below 900 s.
[A] No

[Q] Please indicate whether the reported RP-LC retention time of "COc1cc(Cc2nc(-c3cccc(-c4ccn[nH]4)c3)no2)cc(OC)c1" is strictly below 900 s.
[A] No
